Below: a set of entries, each annotated with reported KE.
tested on: L1210; assay: Log of initial tumor cell population minus log of tumor cell population at end of treatment in L1210 lymphoid leukemic mice; type: functional, Mus musculus
property: KE

INSERT INTO measurements (compound, property, comparison_operator, readout_number) VALUES
  ('CCC1(O)C(=O)OCc2c1cc1n(c2=O)Cc2cc3cc([N+](=O)[O-])ccc3nc2-1 (racemic)', 'KE', '=', 5.97),
  ('CC[C@@]1(O)C(=O)OCc2c1cc1n(c2=O)Cc2cc3c(C)cccc3nc2-1', 'KE', '=', 5.6),
  ('CC[C@@]1(O)C(=O)OCc2c1cc1n(c2=O)Cc2cc3cc(N)ccc3nc2-1', 'KE', '>', 5.99),
  ('CCC1(O)C(=O)OCc2c1cc1n(c2=O)Cc2cc3c([N+](=O)[O-])cccc3nc2-1 (configuration not stated)', 'KE', '=', 5.97),
  ('CCC1(O)C(=O)OCc2c1cc1n(c2=O)Cc2cc3cc(N)ccc3nc2-1 (racemic)', 'KE', '=', 5.97),
  ('CC[C@@]1(O)C(=O)OCc2c1cc1n(c2=O)Cc2cc3c(N)cccc3nc2-1', 'KE', '=', 5.97),
  ('CC[C@@]1(O)C(=O)OCc2c1cc1n(c2=O)Cc2cc3c(Cl)cccc3nc2-1', 'KE', '=', 0),
  ('CCC1(O)C(=O)OCc2c1cc1n(c2=O)Cc2cc3cc(C)ccc3nc2-1 (racemic)', 'KE', '=', 4.66),
  ('CC[C@@]1(O)C(=O)OCc2c1cc1n(c2=O)Cc2cc3c(N)c4c(cc3nc2-1)OCO4', 'KE', '=', 5.8),
  ('CC[C@@]1(O)C(=O)OCc2c1cc1n(c2=O)Cc2cc3ccccc3nc2-1', 'KE', '=', 4.8),
  ('CCC1(O)C(=O)OCc2c1cc1n(c2=O)Cc2cc3cc(Cl)ccc3nc2-1 (racemic)', 'KE', '=', 5.97),
  ('CCC1(O)C(=O)OCc2c1cc1n(c2=O)Cc2cc3cc4c(cc3nc2-1)OCO4 (racemic)', 'KE', '=', 5.97);
